Where do the numbers come from? From the kinase profiling compilation of Christmann-Franck et al. (2016).

Target: AAK1 (human) (UniProt Q2M2I8)
Sequence (Q2M2I8 whole entry, looked up): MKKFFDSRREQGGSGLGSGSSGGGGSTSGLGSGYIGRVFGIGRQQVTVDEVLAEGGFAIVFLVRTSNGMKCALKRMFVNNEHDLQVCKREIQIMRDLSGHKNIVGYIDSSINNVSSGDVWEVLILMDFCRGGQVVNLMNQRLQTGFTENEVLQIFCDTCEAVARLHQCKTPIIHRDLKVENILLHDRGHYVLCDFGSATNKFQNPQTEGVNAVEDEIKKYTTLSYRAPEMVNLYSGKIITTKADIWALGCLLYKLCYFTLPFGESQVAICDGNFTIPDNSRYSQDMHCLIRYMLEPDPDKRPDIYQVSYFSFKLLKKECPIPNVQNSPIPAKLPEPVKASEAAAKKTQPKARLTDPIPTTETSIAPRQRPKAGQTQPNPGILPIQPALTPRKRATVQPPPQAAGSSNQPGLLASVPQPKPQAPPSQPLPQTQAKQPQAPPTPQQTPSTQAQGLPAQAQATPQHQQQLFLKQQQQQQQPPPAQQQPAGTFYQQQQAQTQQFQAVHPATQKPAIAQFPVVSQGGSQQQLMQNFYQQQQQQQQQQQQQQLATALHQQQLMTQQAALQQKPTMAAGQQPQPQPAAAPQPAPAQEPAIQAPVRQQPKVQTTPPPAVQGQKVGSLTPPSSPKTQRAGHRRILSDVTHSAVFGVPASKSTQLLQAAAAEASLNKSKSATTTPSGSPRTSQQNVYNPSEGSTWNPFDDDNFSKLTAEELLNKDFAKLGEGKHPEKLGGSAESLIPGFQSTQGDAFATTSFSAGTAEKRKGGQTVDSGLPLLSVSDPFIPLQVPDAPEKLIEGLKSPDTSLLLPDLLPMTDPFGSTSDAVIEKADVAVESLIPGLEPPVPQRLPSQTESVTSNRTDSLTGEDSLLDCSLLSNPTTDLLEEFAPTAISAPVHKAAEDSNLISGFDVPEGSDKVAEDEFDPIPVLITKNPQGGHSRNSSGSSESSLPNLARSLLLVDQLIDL
Experiment: KINOMEscan competition binding
Settings: compound 10.0 µM
assay metric: kinase still bound, per cent of control (%)
# value in %; strip the unit string

Give its kinase still bound, per cent of control value. Item: "N=C1NC(=O)/C(=C/c2ccc(-c3ccc(C(=O)Nc4ccc(N5CCNCC5)cc4)cc3O)o2)S1"
31

For "CN1C(=O)c2ccccc2N(C)c2nc(NS(=O)(=O)c3ccc(N)cc3)ncc21" then?
100

Proceed to "NS(=O)(=O)c1ccc(-c2ccc(/C=C3\C(=O)Nc4ccccc43)o2)cc1"
23

Item: "CS(=O)(=O)Nc1ccc(-c2ccc(/C=C3\SC(=N)NC3=O)o2)cc1"
34

Now consider "COc1cc(N2CCC(O)CC2)ccc1Nc1ncc2c(n1)N1CCc3cccc(c31)C(=O)N2C" .
35

Next entry: "CSC1=NC(=O)/C(=C/c2c[nH]c(=O)c(-c3ccc(NS(C)(=O)=O)cc3)c2)S1"
6.2

Would you mind doing "COc1cc(N2CCN(C)CC2)ccc1Nc1ncc2c(n1)N(C)c1ccccc1N(C)C2=O" as well?
88

Now the same for "O=C1NC(=O)/C(=C/c2ccc(-c3ccc(F)cc3O)o2)S1"
35

Again, but for "N=C1NC(=O)/C(=C/c2c[nH]c(=O)c(-c3ccc(N4CCNCC4)nc3)c2)S1"
12

Also need "N=C1NC(=O)/C(=C/c2ccc(-c3cncc4ccccc34)o2)S1" , thanks.
1.1

Entry to check: "N=C1NC(=O)/C(=C/c2ccc(-c3ccccc3O)o2)S1"
8.2

And then "CS(=O)(=O)Nc1ccc(-c2cncc(/C=C3\SC(=N)NC3=O)c2)cc1" , what is it?
32
